Origin of values: patent US6011032A

Parameter: % arterial pressure variation. Scope: all listed entries.
System: anaesthetized rabbits
Experiment: Reinfusion ischemia in anaesthetized rabbits (iv)
Type: in vivo, rabbit
Conditions: 0.16 mg/kg iv
Excerpt: The compounds of the present invention of formula I and the therapeutically acceptable salts thereof have advantageous pharmacological properties. These derivatives are active on cardiomyocytes by inhibiting the diastolic contraction induced by veratrine in isolated rat left atrium. […]
test readout: % arterial pressure variation

compound | test readout | val
CN(C1=Nc2ccccc2CS1)C1CCN(CCCCOc2ccc(F)cc2)CC1.O=C(O)/C=C\C(=O)O | % arterial pressure variation | +6%
CN(c1nc2ccccc2s1)C1CCN(CC(O)COc2ccc(F)cc2)CC1 (stereo not shown) [Sabeluzole, reference compound] | % arterial pressure variation | 2%
CN(C1=Nc2ccccc2CS1)C1CCN(CCCOc2ccc(F)cc2)CC1.O=C(O)/C=C\C(=O)O | % arterial pressure variation | +4%
CN(C1=Nc2ccccc2CS1)C1CCN(CC(O)COc2ccc(F)cc2)CC1.Cl.Cl (stereo not shown) | % arterial pressure variation | +5%

----------
test system: anaesthetized rabbits; assay: Reinfusion ischemia in anaesthetized rabbits (iv); type: in vivo, rabbit; conditions: 0.16 mg/kg iv
Parameter: % arterial pressure variation. Scope: all listed entries.

molecule | unit symbol | % arterial pressure variation
COc1ccc([C@@H]2Sc3ccccc3N(CCN(C)C)C(=O)[C@@H]2OC(C)=O)cc1 [Diltiazem, reference compound] | % | -27
CC(C)NCC(O)COc1ccc(CC(N)=O)cc1 (stereo not drawn) [Atenolol, reference compound] | % | -9

----------
Parameter: % heart rate variation. Scope: all listed entries.
system: anaesthetized rabbits; assay: Reinfusion ischemia in anaesthetized rabbits (iv); type: in vivo, rabbit; details: 0.16 mg/kg iv
test readout: % heart rate variation (%)

compound | tested on | test readout | val
CN(C1=Nc2ccccc2CS1)C1CCN(CCCOc2ccc(F)cc2)CC1.O=C(O)/C=C\C(=O)O | anaesthetized rabbits | % heart rate variation | -3
CN(c1nc2ccccc2s1)C1CCN(CC(O)COc2ccc(F)cc2)CC1 (stereo not shown) [Sabeluzole, reference compound] | anaesthetized rabbits | % heart rate variation | -5
COc1ccc([C@@H]2Sc3ccccc3N(CCN(C)C)C(=O)[C@@H]2OC(C)=O)cc1 [Diltiazem, reference compound] | anaesthetized rabbits | % heart rate variation | -5
CC(C)NCC(O)COc1ccc(CC(N)=O)cc1 (stereo not shown) [Atenolol, reference compound] | anaesthetized rabbits | % heart rate variation | -13
CN(C1=Nc2ccccc2CS1)C1CCN(CCCCOc2ccc(F)c(F)c2)CC1 | anaesthetized rabbits | % heart rate variation | -1
CN(C1=Nc2ccccc2CS1)C1CCN(CC(O)COc2ccc(F)cc2)CC1.Cl.Cl (stereo not shown) | anaesthetized rabbits | % heart rate variation | 0
